Numbers sourced from ChEMBL document CHEMBL4627402.

Values of IC50 reported for Lysine-specific histone demethylase 1A (Homo sapiens, UniProt O60341) appear below.

Some molecules with known IC50 results, for comparison:
{"columns": ["molecule", "value type", "result"],
 "data": [
  ["CC/C(=C\\c1ccccc1)[C@@H]1C[C@H]1NC1CC2(CCN(CCO)CC2)C1", "IC50", "< 3 nM"],
  ["C/C(=C\\c1ccccc1)[C@@H]1C[C@H]1NC1CCNCC1 (racemic)", "IC50", "< 2.8 nM"]
]}

Prompt: Provide IC50, recorded with Lysine-specific histone demethylase 1A (Homo sapiens, UniProt O60341), of O=C(O)c1ccc(CN2CCC(CN[C@@H]3C[C@H]3c3ccccc3)CC2)cc1 [GSK2879552]
Response: 212 nM
